As shown below, each of these compounds has a reported Ht value.
# Organism: Rattus norvegicus
# assay.protocol: Open TG-GATES - Regimen: Daily Repeat
# Format: toxicity, organism-based, Sprague-Dawley
# Design: regimen Daily Repeat, gender Male, age 6 weeks
# details: in vivo, po, 1000 mg/kg, […], tissue Blood, route gavage, dose level High, time 7 day

CCN1CCCC1CNC(=O)c1cc(S(N)(=O)=O)ccc1OC (centres undefined) [SULPIRIDE] = 42.2%
CC(C)(S)[C@@H](N)C(=O)O = 40.6%
O=C(O)c1cccnc1 = 40.6%

QUERY: Quick one: Ht of `O=C(N[C@H](CO)[C@H](O)c1ccc([N+](=O)[O-])cc1)C(Cl)Cl` ?
RESULT: 40%

---

# Organism: Rattus norvegicus
# assay.protocol: Open TG-GATES - Regimen: Daily Repeat
# Format: toxicity, organism-based, Sprague-Dawley
# Set-up: regimen Daily Repeat, gender Male, age 6 weeks
# details: in vivo, po, 0 mg/kg, […], tissue Plasma, route gavage, dose level Control, time 7 day
As shown below, each of these molecules has a reported TP value.
Form entry: value (g/dL) — number only.

Consider the worked cases shown below.
CN1C(=O)OC(C)(C)C1=O [TRIMETHADIONE] = 5.8
CC(=N)S [THIOACETAMIDE] = 6.1
C[C@](N)(Cc1ccc(O)c(O)c1)C(=O)O [METHYLDOPA] = 5.8
O=C(N[C@H](CO)[C@H](O)c1ccc([N+](=O)[O-])cc1)C(Cl)Cl [CHLORAMPHENICOL] = 5.9

QUERY: Quick one: TP of CC(=O)Oc1cc(C(C)C)c(OCCN(C)C)cc1C [MOXISYLYTE] ?
RESULT: 5.4

QUERY: Quick one: TP of CC(C)C(=O)Nc1ccc([N+](=O)[O-])c(C(F)(F)F)c1 [FLUTAMIDE] ?
RESULT: 5.8

---

# Organism: Rattus norvegicus
# assay.protocol: Open TG-GATES - Regimen: Daily Repeat
# Format: toxicity, organism-based, Sprague-Dawley
# Parameters: regimen Daily Repeat, gender Male, age 6 weeks
# details: in vivo, po, 100 mg/kg, […], tissue Blood, route gavage, dose level Low, time 14 day
As shown below, each of these compounds has a reported WBC value.
Form entry: value (x10_2/uL) — number only.

QUERY: Quick one: WBC of O=C(O)c1cccnc1 [NIACIN] ?
RESULT: 102.7

---

# Species on record: Rattus norvegicus
# assay.protocol: Open TG-GATES - Regimen: Single
# Assay type: toxicity, organism-based, Sprague-Dawley
# Set-up: regimen Single, gender Male, age 6 weeks
# details: in vivo, po, 0 mg/kg, 24 h, tissue Plasma, route gavage, dose level Control
As shown below, each of these compounds has a reported gamma-GTP value.
Form entry: value (IU/L) — number only.

Consider the worked cases shown below.
CCN1CCCC1CNC(=O)c1cc(S(N)(=O)=O)ccc1OC (stereo not given) [SULPIRIDE] = 1
CC(C)C(=O)Nc1ccc([N+](=O)[O-])c(C(F)(F)F)c1 [FLUTAMIDE] = 0.8
CCc1oc2ccccc2c1C(=O)c1cc(I)c(O)c(I)c1 = 1

QUERY: Quick one: gamma-GTP of `Oc1ncnc2[nH]ncc12` ?
RESULT: 1.2

QUERY: Quick one: gamma-GTP of CC(=N)S [THIOACETAMIDE] ?
RESULT: 1.5

QUERY: Quick one: gamma-GTP of `O=C(N[C@H](CO)[C@H](O)c1ccc([N+](=O)[O-])cc1)C(Cl)Cl` ?
RESULT: 1.2

QUERY: Quick one: gamma-GTP of `CC(C)(S)[C@@H](N)C(=O)O` ?
RESULT: 1

QUERY: Quick one: gamma-GTP of `C[C@](N)(Cc1ccc(O)c(O)c1)C(=O)O` ?
RESULT: 1

QUERY: Quick one: gamma-GTP of `CCC(C)(C)C(=O)O[C@H]1C[C@@H](C)C=C2C=C[C@H](C)[C@H](CC[C@@H]3C[C@@H](O)CC(=O)O3)[C@H]21` ?
RESULT: 1.6

QUERY: Quick one: gamma-GTP of `CCSCC[C@H](N)C(=O)O` ?
RESULT: 1.2

---

# Species: Rattus norvegicus
# assay.protocol: Open TG-GATES - Regimen: Single
# Type: toxicity, organism-based, Sprague-Dawley
# Parameters: regimen Single, gender Male, age 6 weeks
# details: in vivo, po, 0 mg/kg, 3 h, tissue Plasma, route gavage, dose level Control
measurement.kind: Ca (mg/dL)
Form entry: value (mg/dL) — number only.

QUERY: Quick one: Ca of CCC(C)(C)C(=O)O[C@H]1C[C@@H](C)C=C2C=C[C@H](C)[C@H](CC[C@@H]3C[C@@H](O)CC(=O)O3)[C@H]21 [SIMVASTATIN] ?
RESULT: 11

QUERY: Quick one: Ca of O=C(N[C@H](CO)[C@H](O)c1ccc([N+](=O)[O-])cc1)C(Cl)Cl [CHLORAMPHENICOL] ?
RESULT: 11.6

QUERY: Quick one: Ca of Oc1ncnc2[nH]ncc12 [ALLOPURINOL] ?
RESULT: 10.9

QUERY: Quick one: Ca of CC(C)C(=O)Nc1ccc([N+](=O)[O-])c(C(F)(F)F)c1 [FLUTAMIDE] ?
RESULT: 11

QUERY: Quick one: Ca of CC(=N)S [THIOACETAMIDE] ?
RESULT: 10.6

QUERY: Quick one: Ca of C[C@](N)(Cc1ccc(O)c(O)c1)C(=O)O [METHYLDOPA] ?
RESULT: 11.6

QUERY: Quick one: Ca of CCN1CCCC1CNC(=O)c1cc(S(N)(=O)=O)ccc1OC (stereo unspecified) [SULPIRIDE] ?
RESULT: 11

QUERY: Quick one: Ca of CC(=O)Oc1cc(C(C)C)c(OCCN(C)C)cc1C [MOXISYLYTE] ?
RESULT: 10.8

QUERY: Quick one: Ca of C#C[C@]1(O)CC[C@H]2[C@@H]3CCc4cc(O)ccc4[C@H]3CC[C@@]21C [ETHINYL ESTRADIOL] ?
RESULT: 11.3

QUERY: Quick one: Ca of O=C(O)c1cccnc1 [NIACIN] ?
RESULT: 11

QUERY: Quick one: Ca of CC(C)(S)[C@@H](N)C(=O)O [PENICILLAMINE] ?
RESULT: 11.1

---

As shown below, each of these molecules has a reported A/G value.
# Species on record: Rattus norvegicus
# assay.protocol: Open TG-GATES - Regimen: Single
# Type: toxicity, organism-based, Sprague-Dawley
# Parameters: regimen Single, gender Male, age 6 weeks
# details: in vivo, po, 0 mg/kg, 3 h, tissue Plasma, route gavage, dose level Control
Format: numeric value only, no unit, no commentary.

Consider the worked cases shown below.
C[C@](N)(Cc1ccc(O)c(O)c1)C(=O)O = 0.9
CC(=O)Oc1cc(C(C)C)c(OCCN(C)C)cc1C = 1.3
CC(C)(S)[C@@H](N)C(=O)O = 0.9
CC(=N)S [THIOACETAMIDE] = 2.1
CCN1CCCC1CNC(=O)c1cc(S(N)(=O)=O)ccc1OC (configuration not stated) [SULPIRIDE] = 0.9
CCc1oc2ccccc2c1C(=O)c1cc(I)c(O)c(I)c1 = 2.2
CCSCC[C@H](N)C(=O)O = 1.6
Nc1nc(N)c2nc(-c3ccccc3)c(N)nc2n1 = 1

QUERY: Quick one: A/G of `C[C@]12CCC(=O)C=C1CC[C@@H]1[C@@H]2CC[C@@]2(C)[C@H]1CC[C@]2(C)O` ?
RESULT: 0.9

QUERY: Quick one: A/G of `CN1C(=O)OC(C)(C)C1=O` ?
RESULT: 0.9

QUERY: Quick one: A/G of CC(C)C(=O)Nc1ccc([N+](=O)[O-])c(C(F)(F)F)c1 [FLUTAMIDE] ?
RESULT: 1.7

QUERY: Quick one: A/G of `O=C(N[C@H](CO)[C@H](O)c1ccc([N+](=O)[O-])cc1)C(Cl)Cl` ?
RESULT: 0.9

---

# Species on record: Rattus norvegicus
# assay.protocol: Open TG-GATES - Regimen: Daily Repeat
# Type: toxicity, organism-based, Sprague-Dawley
# Set-up: regimen Daily Repeat, gender Male, age 6 weeks
# details: in vivo, po, 100 mg/kg, […], tissue Blood, route gavage, dose level Low, time 7 day
measurement.kind: Neu (%)
Form entry: value (%) — number only.

Consider the worked cases shown below.
O=C(O)c1cccnc1 = 12.8
CC(C)(S)[C@@H](N)C(=O)O = 14.6
O=C(N[C@H](CO)[C@H](O)c1ccc([N+](=O)[O-])cc1)C(Cl)Cl = 17.4

QUERY: Quick one: Neu of CCN1CCCC1CNC(=O)c1cc(S(N)(=O)=O)ccc1OC (centres undefined) [SULPIRIDE] ?
RESULT: 14.6
